biological target: T1, PSMA Fab (006 PSMA Fab) (biotinylated (site not stated)); test: phage ELISA on captured PSMA Fab, wells pre-incubated with PSMA antigen as competitor
T1 construct: also called Anti-PSMA Fab
# phage binding ELISA signal (Anti-PSMA Fab pre-incubated with PSMA antigen) per entry
property: phage binding ELISA signal (Anti-PSMA Fab pre-incubated with PSMA antigen)

{"columns": ["binder", "result.number"],
 "data": [
  ["ASNWCIPTWMCEGS [Phage-2335]", 0.0671],
  ["TVKWCIPSWMCQQS [Phage-2333]", 0.102],
  ["EPKWCTPAWMCSIV [Phage-2336]", 0.0668],
  ["SDTWCIPAWMCEGR [Phage-2343]", 0.0667]
]}

Reference for the values: patent US20260242478A1
